RECORDED ENDPOINT: logP

These recorded examples may help you get a feel for the data.
Given the molecule COc1ccc2c(c1)SC(C)(C)C=C2 , write its reported logP.
4.32

Please report logP for the following molecule: CC1(C)C=Cc2cccc(Cl)c2O1
4.06

Look up logP of COCCOCCOCCOc1cc2c(c3c1OC(C)(C)CC3)OC(C)(C)CC2 and report it.
4.86

Look up and state reported logP for COc1cc2c(cc1OC)SC(C)(C)C=C2
3.52

Provide logP value for the following molecule: CCc1c2c(cc3c1OC(C)(C)C=C3)C=CC(C)(C)O2
6.89

Could you please provide reported logP for CC1(C)C=Cc2cc(Cl)c3c(c2O1)CCC(C)(C)O3 ? Thanks!
6.14

P: CCOc1cc2c(cc1Br)C=CC(C)(C)O2
Q: CC1(C)C=Cc2ccccc2O1
R: CC1(C)C=Cc2c3c(c4c(c2O1)CCC(C)(C)O4)OC(C)(C)CC3
Sequence the entries by logP, beginning with the highest number. List labels; respect the requested ordering.
R, P, Q
(R: 7.67, P: 5.15, Q: 3.42)

a: Cc1ccc2c(c1)OC(C)(C)C=C2
b: CC1(C)C=Cc2cc(Br)c3c(c2O1)CCC(C)(C)O3
Which record shows the lower logP: the first, a , or the second, b ? Your answer should be the label of the entry you select.
a
(a: 4.03, b: 6.33)
